FYI, the data here is from patent US20030060498A1.

Assayed system: cloned human 5-HT6 receptor (Homo sapiens)
Construct: host or cells: HeLa cells (G-418 selection); membrane preparation
Method summary: 5-HT6 receptor binding assay ([3H]-LSD radioligand, SPA beads)
Hi there, I'd appreciate the recorded pKi for every entry that follows.
# reply with the number alone; pKi is -log10 of concentration in mol/L

Value of pKi reported for the molecule CNCCc1c(C)[nH]c2ccc(S(=O)(=O)c3ccccc3)cc12 is 7.43

// field: pKi; key: CNCCc1c(C)n(C)c2ccc(S(=O)(=O)c3ccc(C(F)(F)F)cc3)cc12.Cl [Example 14, Hydrochloride] ; value = 7.74

// sample CNCCc1cn(C)c2ccc(S(=O)(=O)c3ccc(C)cc3)cc12.Cl [Example 8, hydrochloride] , its pKi was 8.12

Entry under test: Cl.Cn1cc(CCN)c2cc(S(=O)(=O)c3ccccc3)ccc21 [Example 1, Hydrochloride] . Its pKi was 8.82

pKi in this record for CNCCc1c(C)n(C)c2ccc(S(=O)(=O)c3cc(F)cc(F)c3)cc12.Cl [Example 20, Hydrochloride] : 8.34

Consider CNCCc1c(C)n(C)c2ccc(S(=O)(=O)c3ccccc3)cc12.Cl [Example 5, Hydrochloride] . Its measured pKi is 8.05

Lab note: measured pKi of Cc1ccc(S(=O)(=O)c2ccc3c(c2)c(CCN)c(C)n3C)cc1.Cl [Example 10, Hydrochloride] was 7.66

Per the records, this molecule ( CNCCc1c(C)n(C)c2ccc(S(=O)(=O)c3cccc(OC)c3)cc12.Cl [Example 17, Hydrochloride] ) has pKi equal to 8.00

====

Record form. Attribute: melting point. Fill in for each entry.

Please fill in: melting point reported for CNCCc1cn(C)c2ccc(S(=O)(=O)c3ccc(C)cc3)cc12.Cl [Example 8] = 275 to 277.6 °C

For Cl.Cn1cc(CCN)c2cc(S(=O)(=O)c3ccccc3)ccc21 [Example 1] the molecule record lists melting point as 285.3 to 292 °C

Cc1c(CCN(C)C)c2cc(S(=O)(=O)c3ccccc3)ccc2n1C [Example 6] has a reported melting point of 169.6 to 171.9 °C

// Cc1ccc(S(=O)(=O)c2ccc3c(c2)c(CCN)c(C)n3C)cc1.Cl [Example 10] : melting point value = 168 to 172 °C

Noted for Cc1ccc(S(=O)(=O)c2ccc3[nH]c(C)c(CCN)c3c2)cc1.Cl [Example 9] : its melting point reads > 275 °C

// Cc1c(CCN)c2cc(S(=O)(=O)c3cccc4ccccc34)ccc2n1C.Cl [Example 22] : melting point value = > 175 °C (dec.)

Note to self: melting point recorded for CNCCc1c(C)n(C)c2ccc(S(=O)(=O)c3cc(F)cc(F)c3)cc12.Cl [Example 20] was 253.5 to 257.8 °C

Short answer for COc1cccc(S(=O)(=O)c2ccc3[nH]c(C)c(CCN)c3c2)c1.Cl [Example 15] : melting point was 300 to 302 °C

Consider CNCCc1c(C)n(C)c2ccc(S(=O)(=O)c3ccc(C)cc3)cc12.Cl [Example 11] . Its measured melting point is 259.7 to 262.3 °C

According to the records, this molecule CNCCc1c(C)n(C)c2ccc(S(=O)(=O)c3ccc(C(F)(F)F)cc3)cc12.Cl [Example 14] displays melting point of 189.1 to 193.7 °C

response.value for Cc1[nH]c2ccc(S(=O)(=O)c3ccccc3)cc2c1CCN.Cl [Example 2] (field: melting point) = > 280 °C

Record summary for Cc1c(CCN)c2cc(S(=O)(=O)c3cc(F)cc(F)c3)ccc2n1C.Cl [Example 19] : reported melting point = 288.6 to 290.5 °C

The molecule Cc1ccc(S(=O)(=O)c2ccc3c(c2)c(CCN)cn3C)cc1.Cl [Example 7] showed melting point equal to 186.3 to 190.2 °C

melting point reading for CNCCc1c(C)[nH]c2ccc(S(=O)(=O)c3ccccc3)cc12 [Example 3] : 164.6 to 166 °C

# melting point of Cc1[nH]c2ccc(S(=O)(=O)c3ccc(C(F)(F)F)cc3)cc2c1CCN.Cl [Example 12] = > 275 °C

melting point recorded for this molecule, Cc1[nH]c2ccc(S(=O)(=O)c3cc(F)cc(F)c3)cc2c1CCN.Cl [Example 18] , is > 280 °C

For this molecule ( CNCCc1c(C)n(C)c2ccc(S(=O)(=O)c3ccccc3)cc12.Cl [Example 5] ), measured melting point is 266.8 to 268.2 °C

For this molecule ( COc1cccc(S(=O)(=O)c2ccc3c(c2)c(CCN)c(C)n3C)c1.Cl [Example 16] ), measured melting point is 269.5 to 272.4 °C

====

Assayed system: cloned human 5-HT6 receptor (Homo sapiens, UniProt P50406)
Construct: host or cells: HeLa cells (G-418 selection); membrane preparation
Sequence (P50406 whole entry): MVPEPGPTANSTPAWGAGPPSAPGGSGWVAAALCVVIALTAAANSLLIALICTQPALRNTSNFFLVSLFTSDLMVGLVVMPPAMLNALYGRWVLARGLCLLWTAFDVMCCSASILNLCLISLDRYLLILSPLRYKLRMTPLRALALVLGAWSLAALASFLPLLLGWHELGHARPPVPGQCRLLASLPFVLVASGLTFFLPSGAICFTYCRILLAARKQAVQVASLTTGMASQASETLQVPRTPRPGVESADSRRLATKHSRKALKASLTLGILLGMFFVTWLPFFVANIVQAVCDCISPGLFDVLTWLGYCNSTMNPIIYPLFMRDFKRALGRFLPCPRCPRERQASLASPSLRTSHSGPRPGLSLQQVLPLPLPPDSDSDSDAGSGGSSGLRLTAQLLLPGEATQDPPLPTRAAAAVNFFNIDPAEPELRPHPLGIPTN
Method summary: 5-HT6 receptor binding assay ([3H]-LSD radioligand, SPA beads)
Where a name gives a salt, the structure may show the parent alone.
Please respond with reported Ki for every item in the list.

Entry Cc1[nH]c2ccc(S(=O)(=O)c3cc(F)cc(F)c3)cc2c1CCN.Cl [Example 18, Hydrochloride] ; Ki = 66 nM

// field: Ki; key: COc1cccc(S(=O)(=O)c2ccc3c(c2)c(CCN)c(C)n3C)c1.Cl [Example 16, Hydrochloride] ; value = 3.4 nM

Lab book: Ki of Cc1[nH]c2ccc(S(=O)(=O)c3cccc4ccccc34)cc2c1CCN [Example 21, Hydrochloride] noted as 0.9 nM

Sure, the documented Ki for CNCCc1c(C)n(C)c2ccc(S(=O)(=O)c3ccc(C)cc3)cc12.Cl [Example 11, Hydrochloride] is 15 nM

# compound Cc1c(CCN)c2cc(S(=O)(=O)c3cc(F)cc(F)c3)ccc2n1C.Cl [Example 19, Hydrochloride] ; its Ki = 5.6 nM

Measured Ki, Cc1c(CCN)c2cc(S(=O)(=O)c3ccccc3)ccc2n1C.Cl [Example 4, Hydrochloride] : 4 nM

Data point: COc1cccc(S(=O)(=O)c2ccc3[nH]c(C)c(CCN)c3c2)c1.Cl [Example 15, Hydrochloride] ; Ki = 209 nM

Please fill in: Ki reported for Cc1c(CCN)c2cc(S(=O)(=O)c3ccc(C(F)(F)F)cc3)ccc2n1C.Cl [Example 13, Hydrochloride] = 36 nM

So, Cc1[nH]c2ccc(S(=O)(=O)c3ccccc3)cc2c1CCN.Cl [Example 2, Hydrochloride] ? Its Ki was 38 nM

The compound listed as Cc1c(CCN(C)C)c2cc(S(=O)(=O)c3ccccc3)ccc2n1C has a reported Ki of 1.8 nM

Memo: Cc1c(CCN)c2cc(S(=O)(=O)c3cccc4ccccc34)ccc2n1C.Cl [Example 22, Hydrochloride] , reported Ki: 3.1 nM

Sure, the documented Ki for Cc1ccc(S(=O)(=O)c2ccc3[nH]c(C)c(CCN)c3c2)cc1.Cl [Example 9, Hydrochloride] is 308 nM

Note to self: Ki recorded for Cc1ccc(S(=O)(=O)c2ccc3c(c2)c(CCN)cn3C)cc1.Cl [Example 7, Hydrochloride] was 3.3 nM

====

Structures can show the parent of a compound that is named as a salt.
Assay metric: melting point

Cc1[nH]c2ccc(S(=O)(=O)c3cccc4ccccc34)cc2c1CCN (as salt: hydrochloride) has a reported melting point of > 280 °C

Entry Cc1c(CCN)c2cc(S(=O)(=O)c3ccc(C(F)(F)F)cc3)ccc2n1C.Cl , melting point reported as > 280 °C

Reported melting point ( CNCCc1c(C)n(C)c2ccc(S(=O)(=O)c3cccc(OC)c3)cc12.Cl ) = 192.4 to 196 °C

Per the records, this compound ( Cc1c(CCN)c2cc(S(=O)(=O)c3ccccc3)ccc2n1C.Cl ) has melting point equal to 155 to 158.3 °C

CNCCc1c(C)n(C)c2ccc(S(=O)(=O)c3cccc4ccccc34)cc12.Cl yielded melting point of > 141 °C (dec.)

====

Assayed system: cloned human 5-HT6 receptor (Homo sapiens)
Construct: host or cells: HeLa cells (G-418 selection); membrane preparation
Method summary: 5-HT6 receptor binding assay ([3H]-LSD radioligand, SPA beads)
Stated conditions: [3H]-LSD; membranes of Hela cells containing the cloned human 5-HT6 receptor; IC50 converted by Cheng-Prusoff; average; read-out: Ki
Assay metric: pKi
pKi (log units): -log10 of the concentration in mol/L.

Field pKi (entry Cc1[nH]c2ccc(S(=O)(=O)c3ccc(C(F)(F)F)cc3)cc2c1CCN.Cl [Example 12, Hydrochloride] ) reads 6.84
